Documented pKi across a set of compounds
- target.or.test.system: Neuronal acetylcholine receptor; alpha4/beta2 (Homo sapiens, UniProt P17787+P43681)
- Sequence (P17787 whole entry): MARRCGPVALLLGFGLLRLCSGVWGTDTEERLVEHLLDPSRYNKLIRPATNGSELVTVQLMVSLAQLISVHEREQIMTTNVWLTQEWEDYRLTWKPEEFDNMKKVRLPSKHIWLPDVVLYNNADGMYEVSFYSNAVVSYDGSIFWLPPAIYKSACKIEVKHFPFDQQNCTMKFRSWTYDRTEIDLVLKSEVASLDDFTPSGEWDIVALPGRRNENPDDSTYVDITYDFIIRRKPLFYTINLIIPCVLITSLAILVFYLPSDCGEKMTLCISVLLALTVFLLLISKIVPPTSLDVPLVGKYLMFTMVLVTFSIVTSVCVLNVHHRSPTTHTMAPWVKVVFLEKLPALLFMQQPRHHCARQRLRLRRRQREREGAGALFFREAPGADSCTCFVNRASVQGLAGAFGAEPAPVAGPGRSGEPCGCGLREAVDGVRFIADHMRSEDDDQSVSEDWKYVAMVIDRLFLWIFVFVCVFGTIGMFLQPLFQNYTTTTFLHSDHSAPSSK
- Sequence (P43681 whole entry): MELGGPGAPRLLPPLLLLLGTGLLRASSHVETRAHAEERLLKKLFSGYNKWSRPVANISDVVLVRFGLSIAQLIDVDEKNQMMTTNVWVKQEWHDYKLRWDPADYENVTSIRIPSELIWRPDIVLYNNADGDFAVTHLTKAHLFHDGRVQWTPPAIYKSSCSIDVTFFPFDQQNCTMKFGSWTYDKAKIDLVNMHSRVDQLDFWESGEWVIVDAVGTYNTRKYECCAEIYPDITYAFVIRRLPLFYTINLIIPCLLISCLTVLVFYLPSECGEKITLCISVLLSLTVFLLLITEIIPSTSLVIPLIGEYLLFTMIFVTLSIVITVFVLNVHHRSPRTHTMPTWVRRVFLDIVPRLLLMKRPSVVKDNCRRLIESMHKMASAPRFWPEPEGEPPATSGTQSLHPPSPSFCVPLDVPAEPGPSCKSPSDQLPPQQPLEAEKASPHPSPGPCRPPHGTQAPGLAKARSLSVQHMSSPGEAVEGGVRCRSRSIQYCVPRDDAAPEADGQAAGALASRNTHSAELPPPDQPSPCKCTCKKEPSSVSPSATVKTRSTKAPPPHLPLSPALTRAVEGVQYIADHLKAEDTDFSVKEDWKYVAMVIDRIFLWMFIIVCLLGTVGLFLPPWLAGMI
- run.description: Displacement of [3H]cytisine from human recombinant alpha4beta2 nAChR incubated for 120 mins by radiometric scintillation analysis
pKi: −log10 of the molar value.

smiles.code	pKi
FCc1ccc(-c2ccc(-c3cn([C@H]4CN5CCC4CC5)nn3)s2)cc1	< 6.00
c1cc(-c2ccc(-c3cn([C@H]4CN5CCC4CC5)nn3)s2)ccc1CN1CCCCC1	6.00

--- query ---
Quick one: pKi for Fc1ccc(-c2ccc(-c3cn([C@H]4CN5CCC4CC5)nn3)s2)cn1 ?
< 6.00

====

- target.or.test.system: Neuronal acetylcholine receptor subunit alpha-7 (Rattus norvegicus)
- Sequence (Q05941 whole entry): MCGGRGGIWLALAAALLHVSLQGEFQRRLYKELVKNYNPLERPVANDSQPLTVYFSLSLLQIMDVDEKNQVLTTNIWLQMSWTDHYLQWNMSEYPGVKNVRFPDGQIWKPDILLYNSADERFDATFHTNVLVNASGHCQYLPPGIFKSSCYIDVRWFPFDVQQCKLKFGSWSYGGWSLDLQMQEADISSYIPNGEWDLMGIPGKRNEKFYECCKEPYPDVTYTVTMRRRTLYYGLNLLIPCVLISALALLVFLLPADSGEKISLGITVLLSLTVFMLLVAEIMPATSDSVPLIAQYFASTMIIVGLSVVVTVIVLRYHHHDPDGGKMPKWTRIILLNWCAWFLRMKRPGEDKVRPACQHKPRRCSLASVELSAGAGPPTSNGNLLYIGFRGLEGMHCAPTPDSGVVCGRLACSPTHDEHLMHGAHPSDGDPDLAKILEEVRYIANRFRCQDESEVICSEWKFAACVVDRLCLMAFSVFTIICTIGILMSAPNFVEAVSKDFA
- run.description: Displacement of [125I]-alpha-bungarotoxin from alpha7 nAChR in Wistar rat brain membrane incubated for 3 hrs by gamma counting analysis
# y = Ki below 2 nM (exclusive); n = Ki at/above 2 nM

smiles.code	target.or.test.system	group
Fc1ccc(-c2ccc(-c3cn([C@H]4CN5CCC4CC5)nn3)cc2)cn1	Neuronal acetylcholine receptor subunit alpha-7 (Rattus norvegicus)	n

Field: below-cutoff. Rule: recorded Ki strictly less than 2 nM. Subject: c1cc(CN2CCOCC2)cc(-c2cccc(-c3cn([C@H]4CN5CCC4CC5)nn3)c2)c1
n

Dear colleague, could you confirm whether Ki of OCc1ccc(-c2cccc(-c3cn([C@H]4CN5CCC4CC5)nn3)c2)cc1F falls below 2 nM? Thanks.
n

Ki under 2 nM? Item: OCCc1ccc(-c2ccc(-c3cn([C@H]4CN5CCC4CC5)nn3)s2)cc1
y

Dear reviewer, please state whether FCCOc1ccc(-c2ccc(-c3cn([C@H]4CN5CCC4CC5)nn3)s2)cc1 has Ki strictly beneath 2 nM.
n

For OCc1ccc(-c2ccc(-c3cn([C@H]4CN5CCC4CC5)nn3)s2)s1 , is the recorded Ki below the cut-off of 2 nM?
y

Check if Ki falls below 2 nM for OC1CCN(Cc2ccc(-c3ccc(-c4cn([C@H]5CN6CCC5CC6)nn4)s3)cc2)CC1 .
y

Answer whether the compound c1cc(-c2ccc(CN3CCCCC3)cc2)cc(-c2cn([C@H]3CN4CCC3CC4)nn2)c1 has Ki strictly less than 2 nM
n

====

- target.or.test.system: Neuronal acetylcholine receptor subunit alpha-7 (Rattus norvegicus)
- run.description: Displacement of [125I]-alpha-bungarotoxin from alpha7 nAChR in Wistar rat brain membrane incubated for 3 hrs by gamma counting analysis
Below, each entry is listed with its recorded Ki.
Write down the numeric answer in nM and omit the unit.

smiles.code	Ki, nM
OCc1ccc(-c2cccc(-c3cn([C@H]4CN5CCC4CC5)nn3)c2)cc1	7
c1cc2c(cc1-c1ccc(-c3cn([C@H]4CN5CCC4CC5)nn3)s1)OCCO2	140

Request the reported Ki associated with c1cc(-c2ccc(CN3CCOCC3)cc2)cc(-c2cn([C@H]3CN4CCC3CC4)nn2)c1
12.5

State the recorded Ki for this entry: OCCOc1ccc(-c2ccc(-c3cn([C@H]4CN5CCC4CC5)nn3)s2)cc1
1.7

Look up Ki: Fc1ccc(-c2ccc(-c3cn([C@H]4CN5CCC4CC5)nn3)s2)cn1
13

====

// Ki lookup, one value per entry
- target.or.test.system: Neuronal acetylcholine receptor subunit alpha-7 (Rattus norvegicus)
- run.description: Displacement of [125I]-alpha-bungarotoxin from alpha7 nAChR in Wistar rat brain membrane incubated for 3 hrs by gamma counting analysis
Note: unit µM is implicit; provide only the numeric part.

smiles.code	target.or.test.system	Ki / µM
c1cc(CN2CCOCC2)cc(-c2ccc(-c3cn([C@H]4CN5CCC4CC5)nn3)s2)c1	Neuronal acetylcholine receptor subunit alpha-7 (Rattus norvegicus)	0.016
c1cc2c(cc1-c1ccc(-c3cn([C@H]4CN5CCC4CC5)nn3)s1)CCO2	Neuronal acetylcholine receptor subunit alpha-7 (Rattus norvegicus)	0.06
FCc1cccc(-c2ccc(-c3cn([C@H]4CN5CCC4CC5)nn3)s2)c1	Neuronal acetylcholine receptor subunit alpha-7 (Rattus norvegicus)	0.042
CN1CCN(Cc2ccc(-c3cccc(-c4cn([C@H]5CN6CCC5CC6)nn4)c3)cc2)CC1	Neuronal acetylcholine receptor subunit alpha-7 (Rattus norvegicus)	0.0019
NCc1ccc(-c2ccc(-c3cn([C@H]4CN5CCC4CC5)nn3)s2)cc1	Neuronal acetylcholine receptor subunit alpha-7 (Rattus norvegicus)	0.0003

Ki lookup needed for OCc1ccc(-c2csc(-c3cn([C@H]4CN5CCC4CC5)nn3)c2)cc1 , thanks.
0.0015

What does the record list as Ki for OCc1ccc(-c2ccc(-c3cn([C@H]4CN5CCC4CC5)nn3)s2)cc1F ?
0.012

What value of Ki has been reported for the following compound? FCC1CCN(Cc2ccc(-c3ccc(-c4cn([C@H]5CN6CCC5CC6)nn4)s3)cc2)CC1
0.0014

Would you mind telling me what Ki value was observed for c1cc(CN2CCCCC2)cc(-c2cccc(-c3cn([C@H]4CN5CCC4CC5)nn3)c2)c1 ?
0.122

Could you tell me which Ki is on file for c1cc(CN2CCCCC2)cc(-c2ccc(-c3cn([C@H]4CN5CCC4CC5)nn3)s2)c1 ?
0.017

# lookup: Ki of OCc1ccc(-c2cccc(-c3cn([C@H]4CN5CCC4CC5)nn3)c2)s1
0.0002

Would you mind telling me what Ki value was observed for CN1CCN(Cc2cccc(-c3ccc(-c4cn([C@H]5CN6CCC5CC6)nn4)s3)c2)CC1 ?
0.016

====

- run.description: Cytotoxicity against human SH-SY5Y cells assessed as reduction in cell viability at 13 uM incubated for 48 hrs by MTS assay relative to control
- Format: cell-based
- measurement.setup: read-out: INH
measured.property: cytotoxicity at 48 h, 13 µM (%)
A number alone suffices; assume %.

Which cytotoxicity at 48 h, 13 µM is listed for Fc1ccc(-c2ccc(-c3cn([C@H]4CN5CCC4CC5)nn3)s2)cn1 ?
15

====

- target.or.test.system: Neuronal acetylcholine receptor subunit alpha-7 (Rattus norvegicus)
- run.description: Displacement of [125I]-alpha-bungarotoxin from alpha7 nAChR in Wistar rat brain membrane incubated for 3 hrs by gamma counting analysis
measured.property: pKi
# log scale: pKi equals minus log10 of the concentration in mol/L

Consider the worked cases shown below.
smiles.code	target.or.test.system	pKi
OCc1cccc(-c2ccc(-c3cn([C@H]4CN5CCC4CC5)nn3)s2)c1	Neuronal acetylcholine receptor subunit alpha-7 (Rattus norvegicus)	9.15
FCCc1ccc(-c2ccc(-c3cn([C@H]4CN5CCC4CC5)nn3)s2)cc1	Neuronal acetylcholine receptor subunit alpha-7 (Rattus norvegicus)	6.80
CN1CCN(Cc2cccc(-c3cccc(-c4cn([C@H]5CN6CCC5CC6)nn4)c3)c2)CC1	Neuronal acetylcholine receptor subunit alpha-7 (Rattus norvegicus)	7.41
COCOCCOc1ccc(-c2ccc(-c3cn([C@H]4CN5CCC4CC5)nn3)s2)cc1	Neuronal acetylcholine receptor subunit alpha-7 (Rattus norvegicus)	6.85
FC1CCN(Cc2ccc(-c3ccc(-c4cn([C@H]5CN6CCC5CC6)nn4)s3)cc2)CC1	Neuronal acetylcholine receptor subunit alpha-7 (Rattus norvegicus)	8.55
Fc1ccc(-c2csc(-c3cn([C@H]4CN5CCC4CC5)nn3)c2)cn1	Neuronal acetylcholine receptor subunit alpha-7 (Rattus norvegicus)	7.51

Let us examine a further case.
Which value of pKi has been reported for c1ccc(-c2ccc(-c3cn([C@H]4CN5CCC4CC5)nn3)s2)cc1 in the records?
7.37
